Entries annotated with measured T ½
- measured-on: T1, cynomolgus monkey BCMA (cynomolgus monkey, UniProt A0A2K5UD97 1-53)
- T1 construct: Soluble analyte in SPR; construct not described; also called cyBCMA; Cyno BCMA
- assay-remarks: SPR, IgG immobilised, 37 C
Give the value in min but do not write min after it.

Solved entries (count: 2):
>  <binder>
L3.PY/L3.KY/P6E01 (antibody, V domains shown, IgG) VH: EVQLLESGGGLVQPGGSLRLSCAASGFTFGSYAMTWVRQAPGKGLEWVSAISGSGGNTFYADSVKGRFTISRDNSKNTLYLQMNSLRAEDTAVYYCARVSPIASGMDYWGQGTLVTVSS VL: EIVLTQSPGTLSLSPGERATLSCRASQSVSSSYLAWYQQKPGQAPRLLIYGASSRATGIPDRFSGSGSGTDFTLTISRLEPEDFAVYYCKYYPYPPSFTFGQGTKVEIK

>  <value-reported>
2.3

$$$$
>  <binder>
L3.PY/P6E01 (antibody, V domains shown, IgG) VH: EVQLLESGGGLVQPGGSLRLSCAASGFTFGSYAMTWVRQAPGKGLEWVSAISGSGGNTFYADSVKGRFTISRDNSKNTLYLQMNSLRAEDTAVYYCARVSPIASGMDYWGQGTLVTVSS VL: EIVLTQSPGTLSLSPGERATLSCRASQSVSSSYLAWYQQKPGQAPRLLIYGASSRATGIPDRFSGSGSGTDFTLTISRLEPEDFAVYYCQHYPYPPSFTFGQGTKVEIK

>  <value-reported>
0.88

$$$$

Moving on to the next binder.
Record summary for L3.PY/L1.AH/H3.AE (antibody, V domains shown, IgG) VH: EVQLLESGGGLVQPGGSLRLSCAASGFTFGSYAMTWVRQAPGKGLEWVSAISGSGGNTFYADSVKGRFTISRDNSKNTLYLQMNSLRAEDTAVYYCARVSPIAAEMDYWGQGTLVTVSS VL: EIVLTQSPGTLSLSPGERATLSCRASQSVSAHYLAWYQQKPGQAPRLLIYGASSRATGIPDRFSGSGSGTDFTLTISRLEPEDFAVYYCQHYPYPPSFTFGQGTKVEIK : reported T ½ = 3.25
